- test: Pharmacokinetic study in mice (plasma, brain, CSF)
- Assay type: in vivo, mouse
- conditionInfo: male, C57BL/6, mouse, ip, brain, intraperitoneal 30 mg/Kg single dose
assayMetric: AUC(0-inf) (ng·h/mL)
Dear colleague, please return just the value in ng·h/mL, with no unit written.

**Q:** Item CNc1nc(Nc2ccc(C(=O)N3CCN(C[C@H]4CC[C@H](CSC(C)(C)[C@H](NC(=O)C5(F)CC5)C(=O)N5C[C@H](O)CC5C(=O)NCc5ccc(-c6scnc6C)cc5)CC4)CC3)cc2OC)ncc1Cl (stereo partly shown) : provide AUC(0-inf)
**A:** 884

====

- test: Pharmacokinetic study in mice (plasma, brain, CSF)
- Assay type: in vivo, mouse
- conditionInfo: male, C57BL/6, mouse, brain, gavage (oral) 30 mg/Kg single dose, read-out: metabolic half-life (converted)
assayMetric: half-life (h)
Dear colleague, please return just the value in h, with no unit written.

**Q:** Item CNc1nc(Nc2ccc(C(=O)N3CCN(C[C@H]4CC[C@H](CSC(C)(C)[C@H](NC(=O)C5(F)CC5)C(=O)N5C[C@H](O)CC5C(=O)NCc5ccc(-c6scnc6C)cc5)CC4)CC3)cc2OC)ncc1Cl (stereo partly shown) [XL01126] : provide half-life
**A:** 10.7

====

- Tested on: Rab10 pThr73
- test: Rab10 Thr73 dephosphorylation (immunoblot) in LRRK2^G2019S MEFs
- Assay type: cell-based, mouse
- conditionInfo: Mus musculus, 1 μM/4 h treatment; read-out: pRab10 inhibited in LRRK2^G2019S MEFs
Readings of inhibition at 1 µM for the listed compounds

Reference set (2 entries):
compound	assayedSystem	assayMetric	reading
CNc1nc(Nc2ccc(C(=O)N3C[C@@H](C)N(C[C@H]4CC[C@H](CSC(C)(C)C(NC(=O)C5(F)CC5)C(=O)N5C[C@H](O)C[C@H]5C(=O)NCc5ccc(-c6scnc6C)cc5)CC4)[C@@H](C)C3)cc2OC)ncc1Cl (stereo partly shown) [XL02031]	Rab10 pThr73	inhibition at 1 µM	10 to 100%
CNc1nc(Nc2ccc(C(=O)N3CCN(C[C@H]4CC[C@H](CSC(C)(C)[C@H](NC(=O)C5(F)CC5)C(=O)N5C[C@H](O)[C@H](F)C5C(=O)NCc5ccc(-c6scnc6C)cc5)CC4)CC3)cc2OC)ncc1Cl (stereo partly shown) [XL02152]	Rab10 pThr73	inhibition at 1 µM	80 to 100%

**Q:** Item CNc1nc(Nc2ccc(C(=O)N3CCN(CCCSC(C)(C)[C@H](NC(=O)C4(F)CC4)C(=O)N4C[C@H](O)C[C@H]4C(=O)N[C@@H](C)c4ccc(-c5scnc5C)cc4)CC3)cc2OC)ncc1Cl [XL01118] : provide inhibition at 1 µM
**A:** 20 to 100%

**Q:** Item CNc1nc(Nc2ccc(C(=O)N3CCN(CCOCCOCCSC(C)(C)[C@H](NC(=O)C4(F)CC4)C(=O)N4C[C@H](O)C[C@H]4C(=O)NCc4ccc(-c5scnc5C)c(F)c4)CC3)cc2OC)ncc1Cl [XL01123] : provide inhibition at 1 µM
**A:** 20 to 100%

**Q:** Item CNc1nc(Nc2ccc(C(=O)N3CCN(CCOCCOCCSC(C)(C)[C@H](NC(=O)C4(F)CC4)C(=O)N4C[C@H](O)C[C@H]4C(=O)N[C@@H](C)c4ccc(-c5scnc5C)cc4)CC3)cc2OC)ncc1Cl [XL01119] : provide inhibition at 1 µM
**A:** 20 to 100%

**Q:** Item CNc1nc(Nc2ccc(C(=O)N3CCN(CCOCCOCCOCCOCCOc4cccc(C(=O)c5csc(C6CCCN6C(=O)[C@@H](NC(=O)[C@H](C)NC)C6CCCCC6)n5)c4)CC3)cc2OC)ncc1Cl (stereo partly shown) [SD112] : provide inhibition at 1 µM
**A:** 30 to 95%

**Q:** Item CNc1nc(Nc2ccc(OCCOCCCSC(C)(C)[C@@H](NC(=O)C3(F)CC3)C(=O)N3C[C@H](O)C[C@H]3C(=O)NCc3ccc(-c4scnc4C)cc3)cc2OC)ncc1Cl [XL01149] : provide inhibition at 1 µM
**A:** 20 to 100%

**Q:** Item CNc1nc(Nc2ccc(C(=O)N3CCN(C[C@H]4CC[C@@H](CSC(C)(C)[C@H](NC(=O)C5(F)CC5)C(=O)N5C[C@H](O)CC5C(=O)N[C@@H](C)c5ccc(-c6scnc6C)cc5)CC4)CC3)cc2OC)ncc1Cl (stereo partly shown) [XL02060] : provide inhibition at 1 µM
**A:** 10 to 100%

**Q:** Item CNc1nc(Nc2ccc(C(=O)N3CCN(CCCOc4cccc(C(=O)c5csc(C6CCCN6C(=O)[C@@H](NC(=O)[C@H](C)NC)C6CCCCC6)n5)c4)CC3)cc2OC)ncc1Cl (stereo partly shown) [SD114] : provide inhibition at 1 µM
**A:** 30 to 95%

**Q:** Item CNc1nc(Nc2ccc(C(=O)N3CCN(Cc4ccc(CSC(C)(C)[C@H](NC(=O)C5(F)CC5)C(=O)N5C[C@H](O)C[C@H]5C(=O)NCc5ccc(-c6scnc6C)cc5)cc4)CC3)cc2OC)ncc1C(F)(F)F [XL01070B] : provide inhibition at 1 µM
**A:** 20 to 100%

====

- test: Caco-2 permeability
- Format: in vitro ADME
- conditionInfo: human, Caco-2; A − B
assayMetric: Papp A→B

**Q:** Item CNc1nc(Nc2ccc(C(=O)N3CCN(C[C@H]4CC[C@H](CSC(C)(C)[C@H](NC(=O)C5(F)CC5)C(=O)N5C[C@H](O)CC5C(=O)NCc5ccc(-c6scnc6C)cc5)CC4)CC3)cc2OC)ncc1Cl (stereo partly shown) : provide Papp A→B
**A:** < 0.74 ×10⁻⁶ cm/s

====

- Tested on: Rab10 pThr73
- test: Rab10 Thr73 dephosphorylation (immunoblot) in WT MEFs
- Assay type: cell-based, mouse
- conditionInfo: Mus musculus, 1 μM/24 h treatment; read-out: pRab10 inhibited in WT MEFs
assayMetric: inhibition at 1 µM

Reference set (3 entries):
molecule	inhibition at 1 µM
CNc1nc(Nc2ccc(C(=O)N3CCN(CCOCCOCCOCCOCCOc4cccc(C(=O)c5csc(C6CCCN6C(=O)[C@@H](NC(=O)[C@H](C)NC)C6CCCCC6)n5)c4)CC3)cc2OC)ncc1Cl (some centres unmarked) [SD112]	30 to 90%
CNc1nc(Nc2ccc(C(=O)N3CCN(C[C@H]4CC[C@H](CSC(C)(C)[C@H](NC(=O)C5(F)CC5)C(=O)N5C[C@H](O)CC5C(=O)NCc5ccc(-c6scnc6C)cc5C)CC4)CC3)cc2OC)ncc1Cl (some centres unmarked) [XL02048]	80 to 100%
CNc1nc(Nc2ccc(C(=O)N3CCN(CC#CCSC(C)(C)[C@H](NC(=O)C4(F)CC4)C(=O)N4C[C@H](O)C[C@H]4C(=O)NCc4ccc(-c5scnc5C)cc4)CC3)cc2OC)ncc1Cl [XL01076]	30 to 100%

**Q:** Item CNc1nc(Nc2ccc(C(=O)N3CCN(Cc4ccc(CSC(C)(C)[C@H](NC(=O)C5(F)CC5)C(=O)N5C[C@H](O)C[C@H]5C(=O)N[C@@H](C)c5ccc(-c6scnc6C)cc5)cc4)CC3)cc2OC)ncc1Cl [XL01120] : provide inhibition at 1 µM
**A:** 30 to 100%

**Q:** Item CNc1nc(Nc2ccc(C(=O)N3CCC4(CCN(C[C@H]5CC[C@H](CSC(C)(C)C(NC(=O)C6(F)CC6)C(=O)N6C[C@H](O)C[C@H]6C(=O)NCc6ccc(-c7scnc7C)cc6)CC5)CC4)CC3)cc2OC)ncc1Cl (some centres unmarked) [XL02038] : provide inhibition at 1 µM
**A:** 80 to 100%

====

- test: Pharmacokinetic study in mice (plasma, brain, CSF)
- Type: in vivo, mouse
- conditionInfo: male, C57BL/6, mouse, brain, intravenous 5 mg/Kg single dose
assayMetric: AUC(0-t) (ng·h/mL)
Dear colleague, please return just the value in ng·h/mL, with no unit written.

**Q:** Item CNc1nc(Nc2ccc(C(=O)N3CCN(C[C@H]4CC[C@H](CSC(C)(C)[C@H](NC(=O)C5(F)CC5)C(=O)N5C[C@H](O)CC5C(=O)NCc5ccc(-c6scnc6C)cc5)CC4)CC3)cc2OC)ncc1Cl (stereo partly shown) [XL01126] : provide AUC(0-t)
**A:** 258

====

Readings of inhibition at 1 µM for the listed compounds
- Test system: Rab10 pThr73
- test: Rab10 Thr73 dephosphorylation (immunoblot) in LRRK2^G2019S MEFs
- Type: cell-based, mouse
- conditionInfo: Mus musculus, 1 μM/4 h treatment; read-out: pRab10 inhibited in LRRK2^G2019S MEFs

Reference set (5 entries):
compound	assayedSystem	inhibition at 1 µM
CNc1nc(Nc2ccc(C(=O)N3CCN(CCOCCOCCSC(C)(C)[C@@H](NC(=O)C4(F)CC4)C(=O)N4C[C@H](O)C[C@H]4C(=O)NCc4ccc(-c5scnc5C)cc4)CC3)cc2OC)ncc1C(F)(F)F [XL01078B]	Rab10 pThr73	20 to 100%
CNc1nc(Nc2ccc(C(=O)N3CCN(C[C@H]4CO[C@H](CSC(C)(C)[C@@H](NC(=O)C5(F)CC5)C(=O)N5C[C@H](O)C[C@H]5C(=O)NCc5ccc(-c6scnc6C)cc5)CO4)CC3)cc2OC)ncc1Cl	Rab10 pThr73	80 to 100%
CNc1nc(Nc2ccc(C(=O)N3CCN(C(=O)[C@H]4CC[C@H](CSC(C)(C)[C@H](NC(=O)C5(F)CC5)C(=O)N5C[C@H](O)CC5C(=O)NCc5ccc(-c6scnc6C)cc5)CC4)CC3)cc2OC)ncc1Cl (stereo partly drawn)	Rab10 pThr73	10 to 100%
CNc1nc(Nc2ccc(C(=O)N3CCN(Cc4ccc(CSC(C)(C)[C@H](NC(=O)C5(F)CC5)C(=O)N5C[C@H](O)C[C@H]5C(=O)N[C@@H](C)c5ccc(-c6scnc6C)cc5)cc4)CC3)cc2OC)ncc1Cl	Rab10 pThr73	20 to 100%
CNc1nc(Nc2ccc(C(=O)N3CCN(C[C@H]4CC[C@@H](CSC(C)(C)[C@H](NC(=O)C5(F)CC5)C(=O)N5C[C@H](O)CC5C(=O)NCc5ccc(-c6scnc6C)cc5C)CC4)CC3)cc2OC)ncc1Cl (stereo partly drawn)	Rab10 pThr73	10 to 100%

**Q:** Item `CNc1nc(Nc2ccc(C(=O)N3CCN(CC#CCSC(C)(C)[C@H](NC(=O)C4(F)CC4)C(=O)N4C[C@H](O)C[C@H]4C(=O)NCc4ccc(-c5scnc5C)cc4)CC3)cc2OC)ncc1Cl` : provide inhibition at 1 µM
**A:** 20 to 100%

**Q:** Item CNc1nc(Nc2ccc(C(=O)N3CCN(CCCN4CCN(c5ccc6c(c5)C(=O)N(C5CCC(=O)NC5=O)C6=O)CC4)CC3)cc2OC)ncc1Cl (stereo not drawn) : provide inhibition at 1 µM
**A:** 30 to 95%

**Q:** Item CNc1nc(Nc2ccc(OC[C@H]3CC[C@H](CSC(C)(C)C(NC(=O)C4(F)CC4)C(=O)N4C[C@H](O)C[C@H]4C(=O)NCc4ccc(-c5scnc5C)cc4)CC3)cc2OC)ncc1Cl (stereo partly drawn) : provide inhibition at 1 µM
**A:** 20 to 100%

**Q:** Item `CNc1nc(Nc2ccc(C(=O)N3CCN(CCOCCOCCSC(C)(C)[C@H](NC(=O)C4(F)CC4)C(=O)N4C[C@H](O)C[C@H]4C(=O)NCc4ccc(-c5scnc5C)cc4)CC3)cc2OC)ncc1Cl` : provide inhibition at 1 µM
**A:** 30 to 95%

**Q:** Item `CNc1nc(Nc2ccc(C(=O)N3CCN(Cc4cccc(CSC(C)(C)[C@H](NC(=O)C5(F)CC5)C(=O)N5C[C@H](O)C[C@H]5C(=O)NCc5ccc(-c6scnc6C)cc5)c4)CC3)cc2OC)ncc1Cl` : provide inhibition at 1 µM
**A:** 20 to 100%

**Q:** Item CNc1nc(Nc2ccc(C(=O)N3CCN(C[C@H]4CC[C@H](CSC(C)(C)[C@H](NC(=O)C5(F)CC5)C(=O)N5C[C@H](O)CC5C(=O)NCc5ccc(-c6scnc6C)cc5F)CC4)CC3)cc2OC)ncc1Cl (stereo partly drawn) : provide inhibition at 1 µM
**A:** 10 to 100%

**Q:** Item CNc1nc(Nc2ccc(C(=O)N3CCN(C[C@H]4CC[C@@H](CSC(C)(C)[C@H](NC(=O)C5(F)CC5)C(=O)N5C[C@H](O)CC5C(=O)NCc5ccc(-c6scnc6C)cc5)CC4)CC3)cc2OC)ncc1Cl (stereo partly drawn) : provide inhibition at 1 µM
**A:** 20 to 100%

**Q:** Item `CNc1nc(Nc2ccc(C(=O)N3CCN(C[C@@H]4CCC[C@H](CSC(C)(C)[C@H](NC(=O)C5(F)CC5)C(=O)N5C[C@H](O)C[C@H]5C(=O)NCc5ccc(-c6scnc6C)cc5)C4)CC3)cc2OC)ncc1Cl` : provide inhibition at 1 µM
**A:** 10 to 100%

**Q:** Item `CNc1nc(Nc2ccc(C(=O)N3CCN(CCCSC(C)(C)[C@H](NC(=O)C4(F)CC4)C(=O)N4C[C@H](O)C[C@H]4C(=O)NCc4ccc(-c5scnc5C)cc4)CC3)cc2OC)ncc1Cl` : provide inhibition at 1 µM
**A:** 30 to 95%

**Q:** Item `CNc1nc(Nc2ccc(OCCOCCOCCOCCSC(C)(C)[C@@H](NC(=O)C3(F)CC3)C(=O)N3C[C@H](O)C[C@H]3C(=O)NCc3ccc(-c4scnc4C)cc3)cc2OC)ncc1Cl` : provide inhibition at 1 µM
**A:** 20 to 100%
